System: PPARg:RXRa (NR concentration 180 nM, RXRa partner concentration 90 nM)
Assay: PBM binding z-score (relative to random genomic background probes); higher = stronger binding; sequences stand for … in GC…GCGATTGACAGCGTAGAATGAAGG
ATTRIBUTE_MEASURED: PBM binding z-score

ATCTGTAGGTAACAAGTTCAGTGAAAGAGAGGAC: 1.51

Q. I'm curious: which PBM binding z-score was measured for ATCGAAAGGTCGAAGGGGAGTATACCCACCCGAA tested on PPARg:RXRa (NR concentration 180 nM, RXRa partner concentration 90 nM)?
A. 3.19

Q. I'm curious: which PBM binding z-score was measured for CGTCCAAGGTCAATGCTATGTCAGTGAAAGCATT tested on PPARg:RXRa (NR concentration 180 nM, RXRa partner concentration 90 nM)?
A. 3.66

Q. I'm curious: which PBM binding z-score was measured for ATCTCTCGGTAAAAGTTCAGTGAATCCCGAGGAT tested on PPARg:RXRa (NR concentration 180 nM, RXRa partner concentration 90 nM)?
A. 3.81

Q. I'm curious: which PBM binding z-score was measured for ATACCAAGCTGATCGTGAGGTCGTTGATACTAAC tested on PPARg:RXRa (NR concentration 180 nM, RXRa partner concentration 90 nM)?
A. 0.178

Q. I'm curious: which PBM binding z-score was measured for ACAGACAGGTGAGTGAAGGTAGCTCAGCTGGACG tested on PPARg:RXRa (NR concentration 180 nM, RXRa partner concentration 90 nM)?
A. 0.284

Q. I'm curious: which PBM binding z-score was measured for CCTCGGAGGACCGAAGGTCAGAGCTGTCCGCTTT tested on PPARg:RXRa (NR concentration 180 nM, RXRa partner concentration 90 nM)?
A. -0.382

Q. I'm curious: which PBM binding z-score was measured for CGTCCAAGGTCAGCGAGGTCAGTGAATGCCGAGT tested on PPARg:RXRa (NR concentration 180 nM, RXRa partner concentration 90 nM)?
A. 3.79

Q. I'm curious: which PBM binding z-score was measured for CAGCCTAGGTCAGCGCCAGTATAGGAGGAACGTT tested on PPARg:RXRa (NR concentration 180 nM, RXRa partner concentration 90 nM)?
A. 0.956

Q. I'm curious: which PBM binding z-score was measured for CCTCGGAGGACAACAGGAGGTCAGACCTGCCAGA tested on PPARg:RXRa (NR concentration 180 nM, RXRa partner concentration 90 nM)?
A. 0.605

Q. I'm curious: which PBM binding z-score was measured for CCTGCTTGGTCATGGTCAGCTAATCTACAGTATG tested on PPARg:RXRa (NR concentration 180 nM, RXRa partner concentration 90 nM)?
A. -0.171

Q. I'm curious: which PBM binding z-score was measured for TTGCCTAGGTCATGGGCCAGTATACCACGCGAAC tested on PPARg:RXRa (NR concentration 180 nM, RXRa partner concentration 90 nM)?
A. 3.7

Q. I'm curious: which PBM binding z-score was measured for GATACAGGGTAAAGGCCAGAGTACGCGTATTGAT tested on PPARg:RXRa (NR concentration 180 nM, RXRa partner concentration 90 nM)?
A. 4.52

Q. I'm curious: which PBM binding z-score was measured for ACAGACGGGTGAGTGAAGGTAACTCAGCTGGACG tested on PPARg:RXRa (NR concentration 180 nM, RXRa partner concentration 90 nM)?
A. 0.424

Q. I'm curious: which PBM binding z-score was measured for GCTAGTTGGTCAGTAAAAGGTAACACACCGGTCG tested on PPARg:RXRa (NR concentration 180 nM, RXRa partner concentration 90 nM)?
A. 0.783

Q. I'm curious: which PBM binding z-score was measured for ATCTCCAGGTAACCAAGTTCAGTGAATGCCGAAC tested on PPARg:RXRa (NR concentration 180 nM, RXRa partner concentration 90 nM)?
A. 0.227

Q. I'm curious: which PBM binding z-score was measured for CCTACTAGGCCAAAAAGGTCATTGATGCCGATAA tested on PPARg:RXRa (NR concentration 180 nM, RXRa partner concentration 90 nM)?
A. 3.56

Q. I'm curious: which PBM binding z-score was measured for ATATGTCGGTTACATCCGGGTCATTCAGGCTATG tested on PPARg:RXRa (NR concentration 180 nM, RXRa partner concentration 90 nM)?
A. 1.55

Q. I'm curious: which PBM binding z-score was measured for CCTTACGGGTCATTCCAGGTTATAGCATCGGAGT tested on PPARg:RXRa (NR concentration 180 nM, RXRa partner concentration 90 nM)?
A. 3.32

Q. I'm curious: which PBM binding z-score was measured for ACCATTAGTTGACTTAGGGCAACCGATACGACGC tested on PPARg:RXRa (NR concentration 180 nM, RXRa partner concentration 90 nM)?
A. 1.06

Q. I'm curious: which PBM binding z-score was measured for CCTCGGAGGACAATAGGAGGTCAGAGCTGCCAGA tested on PPARg:RXRa (NR concentration 180 nM, RXRa partner concentration 90 nM)?
A. 0.443

Q. I'm curious: which PBM binding z-score was measured for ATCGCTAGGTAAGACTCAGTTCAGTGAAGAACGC tested on PPARg:RXRa (NR concentration 180 nM, RXRa partner concentration 90 nM)?
A. -0.14

Q. I'm curious: which PBM binding z-score was measured for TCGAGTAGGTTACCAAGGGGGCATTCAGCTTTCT tested on PPARg:RXRa (NR concentration 180 nM, RXRa partner concentration 90 nM)?
A. 1.48
